Entries and their measured hAmylin-R funct. EC50 (pM), tested with HSA follow.
- Tested system: T1, human amylin 3(a) receptor (human calcitonin receptor co-expressed with RAMP-3) on BHK570/CRE-luc cells (human, UniProt P30988 25-474; O60896 24-148)
- T1 sequence (looked up) 1: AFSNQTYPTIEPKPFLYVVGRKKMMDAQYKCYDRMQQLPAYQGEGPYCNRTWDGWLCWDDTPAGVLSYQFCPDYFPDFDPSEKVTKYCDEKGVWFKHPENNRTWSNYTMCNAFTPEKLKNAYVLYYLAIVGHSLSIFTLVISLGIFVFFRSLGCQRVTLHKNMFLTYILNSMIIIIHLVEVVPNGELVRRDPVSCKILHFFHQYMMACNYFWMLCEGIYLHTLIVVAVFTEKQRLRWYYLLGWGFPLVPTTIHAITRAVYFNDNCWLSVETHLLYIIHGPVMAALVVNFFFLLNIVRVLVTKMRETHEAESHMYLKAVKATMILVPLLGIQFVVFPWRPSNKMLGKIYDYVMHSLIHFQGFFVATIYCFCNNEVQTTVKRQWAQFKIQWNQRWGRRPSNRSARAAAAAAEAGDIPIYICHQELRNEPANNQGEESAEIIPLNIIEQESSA
- T1 sequence (looked up) 2: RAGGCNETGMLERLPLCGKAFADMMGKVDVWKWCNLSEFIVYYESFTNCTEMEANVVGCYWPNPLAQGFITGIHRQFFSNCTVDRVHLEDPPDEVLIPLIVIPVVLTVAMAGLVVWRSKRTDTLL
- Assay remarks: cell-based or functional assay
Numbered stars: 1 amine (or outer) side, 2 acyl side, 3 side chain; on linkers, the order of the positions; unused ones are H or OH. * marks the point of attachment. C20 diacid = O=C(O)CCCCCCCCCCCCCCCCCCC(=O)*; C18 diacid = O=C(O)CCCCCCCCCCCCCCCCC(=O)*; C16 diacid = O=C(O)CCCCCCCCCCCCCCC(=O)*; γGlu = O=C(O)[C@H](CCC(=O)[*:2])N[*:1]
A number alone suffices; assume pM.

# count of solved cases: 2
[
  {
    "Binder": "{C20 diacid-γGlu}-ASELSTAALGRLSAELHELATYPRTETGSGSY-OH [[N-terminal(C20 diacid-gGlu), des1, 23Y, 30S, 31G, 33Y, C-terminal(-)]mimylin]",
    "Quantity unit": "pM",
    "Recorded measurement": 976
  },
  {
    "Binder": "{C18 diacid-γGlu}-ASELTTAVLGRLSAELHELATLPRTETGSGTP-NH2 [[N-terminal(C18 diacid-gGlu), des1, 6T, 9V, 30S, 31G, 32T]mimylin]",
    "Quantity unit": "pM",
    "Recorded measurement": 30
  }
]

Ask | Bench note: what hAmylin-R funct. EC50 (pM), tested with HSA did {C16 diacid-γGlu}-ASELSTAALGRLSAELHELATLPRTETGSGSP-NH2 [[N-terminal(C16 diacid-gGlu), des1, 30S, 31G]mimylin] show?
Reply | 4
